Target: T1, cynomolgus SIRP-α D1 domain (cyno1) (cynomolgus monkey, UniProt Q5TFQ8 30-148 (human entry), limits assumed)
T1 chain: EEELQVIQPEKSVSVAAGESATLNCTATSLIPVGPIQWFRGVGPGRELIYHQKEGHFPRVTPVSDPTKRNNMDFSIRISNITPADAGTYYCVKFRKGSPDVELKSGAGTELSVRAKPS
Assay: SPR, Langmuir fit
The binders listed here are annotated with their koff.
Value expressed in s⁻¹; do not type the unit.

Use the examples below as a reference point.
>>> measured_value("S213 (scFv, V domains shown, also called clone 213) VH: DVQLVESGGGVVRPGESLRLSCEASGFTFRNYYMTWVRQAPGEGLEWVSTISDTGDTAYYADSVKGRFTISRDNSKNSLYLQMNSLRADDTAIYYCAKSWIWWTFFDYWGLGTLVTVSS VL: ALTQPASVSANLGGTVEITCSGGNSNHYGWYQQKSPGSAPVTLIYADTNRPSNIPSRFSGSTSGSTTTLTITGVQAEDEAVYYCGGSSTGDGIFGAGTTLTVL")
0.0026
>>> measured_value("S26 (scFv, V domains shown, also called clone 26) VH: DVQLVESGGGVVRPGESLRLSCAASGFTFSTYAMSWVRQAPGKGLEWVSGISASGSGTYYGDSVKGRFTMSRDNSKNTLYLQMNSLTAEDTAVYYCARETWNHLFDYWGLGTLVTVSS VL: ALTQPASVSANLGGTVEITCSGGSSSYYGWYQQKSPGSAPVTVIYSDNQRPSDIPSRFSGSASDSTATLTITGVQVEDEAIYYCGGYDSSTYANTFGAGTTLTVL")
0.000967

Let us move to another entry and its koff.
binder S24 (scFv, V domains shown, also called clone 24) VH: DVQLVESGGGVVRPGESLRLSCAASGFTFSSNAMSWVRQAPGKGLEWLAGISAGGSDTYYPASVKGRFTISRDNPKNTLYLQMNTLTAEDTAVYYCARETWNHLFDYWGLGTLVTVSS VL: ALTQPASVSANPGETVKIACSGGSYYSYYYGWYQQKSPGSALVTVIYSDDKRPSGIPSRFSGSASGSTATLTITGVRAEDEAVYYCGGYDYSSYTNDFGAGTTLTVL , koff observed: 0.000382
